Values compiled from the supplement of paper PMC4466236.

Collected PBM 8-mer E-score values appear next to each entry.
test system: MvaT; assay: PBM 8-mer E-score (mean of HK and ME arrays) (E-score (dimensionless, -0.5 to 0.5)); higher = stronger relative binding preference
In all, about 33,000 sequences were measured (“E-score (dimensionless, -0.5 to 0.5)”: median about -0.058, highest 2% from about 0.35 on). Only a selection was taken, and the highest values are over-represented in it overall.
The response must contain the number and no unit.

The cases that follow already have their PBM 8-mer E-score on record.
1. CGGTAGCC = -0.317
2. GCTAATGA = -0.138
3. AGGAATTA = 0.226
4. ACTACTGG = 0.0326
5. CCTAATGA = -0.254
6. TTAAACAA = 0.321
7. AACTGTGG = -0.0417
8. ATCATCGG = -0.0977

Record request: PBM 8-mer E-score value, item TGTCCCAA
0.187

Same again, this time with AGTCTAAC
0.049

Then this sequence: GCAGTTCC
-0.18

Do the same for CCTAATTA please
0.358

Quick one: AGCAAAAA
0.0929

Next sequence: GAACATTA
0.276

What do you get for ACTAATTC ?
0.227

What about GCGTCAGA ?
-0.131

What about CTAAATAA ?
0.365

----------
test system: MvaT; test: PBM 8-mer E-score (mean of HK and ME arrays) (E-score (dimensionless, -0.5 to 0.5)); higher = stronger relative binding preference
Whole data set: some 33,000 sequences, median “E-score (dimensionless, -0.5 to 0.5)” near -0.058, cut for the highest 2% near 0.35. What follows is part of a selection rich in the highest values, with near analogues and random picks from the rest.
Decide by PBM 8-mer E-score: equal to or exceeding 0.05 means condition met, less means condition not met.

Worked examples, 5 sequences total:
1) TGTGCCAA = condition not met
2) GAGGAAGA = condition not met
3) AATACAGC = condition met
4) CGAATAAA = condition met
5) ACACTAGT = condition met

Is PBM 8-mer E-score for ATTTCGTC at or above 0.05?
condition met

Entry AGTCACAT please
condition not met

What do we get for AAGCAGCC ?
condition not met

ACTTCTGC , same question.
condition not met

Next sequence up: ATTGGTGG
condition not met

----------
# PBM 8-mer E-score listing for each entry below
system: MvaT; experiment: PBM 8-mer E-score (mean of HK and ME arrays) (E-score (dimensionless, -0.5 to 0.5)); higher = stronger relative binding preference
Whole data set: some 33,000 sequences, median “E-score (dimensionless, -0.5 to 0.5)” near -0.058, cut for the highest 2% near 0.35. The full list was thinned out, with the highest values kept by preference.
Number, no unit, nothing else.

# example entries with known answers
1) AAACTATA = 0.334
2) ATCAGGCA = -0.0666
3) CCAAACAC = 0.111

Entry TACTAATA : reported PBM 8-mer E-score = ?
0.357

Lookup CTATGTAC
0.112

Ok, now TCCTACGA
-0.0392

Subsequent entry: CATTAGAA
-0.0258

Follow-up item: AATAATAC
0.419

Similarly, CGCGATAA ?
0.143

----------
The sequences listed here are annotated with their PBM 8-mer E-score.
system: MvaT; test: PBM 8-mer E-score (mean of HK and ME arrays) (E-score (dimensionless, -0.5 to 0.5)); higher = stronger relative binding preference
The full ranking holds about 33,000 sequences; the median of “E-score (dimensionless, -0.5 to 0.5)” is about -0.058, and the highest 2% start at about 0.35. The sample holds the highest values, similar sequences and a random draw of the others, so the mix is not that of the screen.
Output: the number by itself.

Answered examples (3):
1) TATTCGGA = -0.000615
2) CAAATTAG = 0.18
3) AGAATTAT = 0.315

Attention now turns to another entry.
Give recorded PBM 8-mer E-score with MvaT for the following sequence: ATAATTGG
0.308
